Hi there, I'd appreciate the recorded Emax for every entry that follows.
- Measured target: SIRT1 (Homo sapiens, UniProt Q96EB6)
- Construct: His-tag (N); made in house; host or cells: E. coli BL21(DE3), T7-promoter vector
- Measurement notes: Mass spectrometry based assay for modulators of SIRT1 activity (deacetylation of p53-based acetylated peptide)
- Type: biochemical
- Condition context: percent maximum fold activation of SIRT1

Before answering, review these 8 worked examples.
O=C(Nc1ccccn1)c1cccn2cc(-c3ccc(CN4CCCC4)cc3)nc12 [Compound 253] = > 200%
O=C(Nc1cccn2cc(-c3cccc(C(F)(F)F)c3)nc12)c1cccnc1 [Compound 120] = < 200%
O=C(Nc1cccn2cc(-c3ccccc3)nc12)C1CCNCC1 [Compound 103] = < 200%
O=C(Nc1cccn2cc(-c3cccc(C(F)(F)F)c3)nc12)c1ncccn1 [Compound 122] = > 200%
O=C(Nc1ccc(CCN2CCCC2)cc1)c1cccn2cc(-c3ccc(F)cc3C(F)(F)F)nc12 [Compound 218] = < 200%
O=C(Nc1nccs1)c1cccn2cc(-c3ccc(CN4CCCC4)cc3)nc12 [Compound 252] = > 200%
O=C(Nc1nccs1)c1cccn2cc(-c3ccc(C(F)(F)F)cc3)nc12 [Compound 150] = < 200%
O=C(Nc1cnccn1)c1cccn2cc(-c3cccc(C(F)(F)F)c3)nc12 [Compound 118] = < 200%

Could you report Emax for every entry in the following list?
1. O=C(Nc1nc(CN2CCOCC2)cs1)c1cccn2cc(-c3cccc(OC(F)(F)F)c3)nc12 [Compound 133]
2. O=C(Nc1nccs1)c1cccn2nc(-c3ccccc3OC(F)(F)F)nc12 [Compound 227]

**Result**
1. > 200%
2. > 200%

* * *

- Measured target: SIRT1 (Homo sapiens, UniProt Q96EB6)
- Construct: His-tag (N); made in house; host or cells: E. coli BL21(DE3), T7-promoter vector
- Sequence (Q96EB6 1-747): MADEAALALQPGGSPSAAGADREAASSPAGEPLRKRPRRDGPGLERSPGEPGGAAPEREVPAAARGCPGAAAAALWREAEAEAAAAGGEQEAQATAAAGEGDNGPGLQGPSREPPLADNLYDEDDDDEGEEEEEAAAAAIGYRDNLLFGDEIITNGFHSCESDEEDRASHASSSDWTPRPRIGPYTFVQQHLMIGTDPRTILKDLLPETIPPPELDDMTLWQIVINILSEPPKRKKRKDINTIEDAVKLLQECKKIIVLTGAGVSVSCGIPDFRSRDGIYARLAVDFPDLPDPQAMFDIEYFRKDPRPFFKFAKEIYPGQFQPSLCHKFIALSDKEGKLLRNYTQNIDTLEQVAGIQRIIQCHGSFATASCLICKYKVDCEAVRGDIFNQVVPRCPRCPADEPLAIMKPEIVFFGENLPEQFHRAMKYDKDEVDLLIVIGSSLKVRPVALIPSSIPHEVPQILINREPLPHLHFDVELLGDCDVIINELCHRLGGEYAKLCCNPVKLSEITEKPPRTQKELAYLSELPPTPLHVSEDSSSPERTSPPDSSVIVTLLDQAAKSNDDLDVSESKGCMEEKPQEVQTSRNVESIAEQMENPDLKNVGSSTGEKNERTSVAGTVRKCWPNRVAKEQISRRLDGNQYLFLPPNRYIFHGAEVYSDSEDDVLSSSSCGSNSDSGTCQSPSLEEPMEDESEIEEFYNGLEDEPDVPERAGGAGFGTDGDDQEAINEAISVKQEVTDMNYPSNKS
- Measurement notes: Mass spectrometry based assay for modulators of SIRT1 activity (deacetylation of p53-based acetylated peptide)
- Assay type: biochemical
- Condition context: concentration of test compound that results in 150% activation of SIRT1; 0.5 μM peptide substrate, 120 μM βNAD+, 10 nM SIRT1, 25 min, 25° C.
Recorded metric: EC1.5

O=C(Nc1ccncn1)c1nccn2cc(-c3ccccc3C(F)(F)F)nc12 = B (EC1.5 1-25 uM)
O=C(Nc1nc(CN2CCOCC2)cs1)c1cccn2nc(-c3cccc(C(F)(F)F)c3)nc12 = B (EC1.5 1-25 uM)

* * *

- Measured target: SIRT1 (Homo sapiens, UniProt Q96EB6)
- Construct: His-tag (N); made in house; host or cells: E. coli BL21(DE3), T7-promoter vector
- Sequence (Q96EB6 1-747): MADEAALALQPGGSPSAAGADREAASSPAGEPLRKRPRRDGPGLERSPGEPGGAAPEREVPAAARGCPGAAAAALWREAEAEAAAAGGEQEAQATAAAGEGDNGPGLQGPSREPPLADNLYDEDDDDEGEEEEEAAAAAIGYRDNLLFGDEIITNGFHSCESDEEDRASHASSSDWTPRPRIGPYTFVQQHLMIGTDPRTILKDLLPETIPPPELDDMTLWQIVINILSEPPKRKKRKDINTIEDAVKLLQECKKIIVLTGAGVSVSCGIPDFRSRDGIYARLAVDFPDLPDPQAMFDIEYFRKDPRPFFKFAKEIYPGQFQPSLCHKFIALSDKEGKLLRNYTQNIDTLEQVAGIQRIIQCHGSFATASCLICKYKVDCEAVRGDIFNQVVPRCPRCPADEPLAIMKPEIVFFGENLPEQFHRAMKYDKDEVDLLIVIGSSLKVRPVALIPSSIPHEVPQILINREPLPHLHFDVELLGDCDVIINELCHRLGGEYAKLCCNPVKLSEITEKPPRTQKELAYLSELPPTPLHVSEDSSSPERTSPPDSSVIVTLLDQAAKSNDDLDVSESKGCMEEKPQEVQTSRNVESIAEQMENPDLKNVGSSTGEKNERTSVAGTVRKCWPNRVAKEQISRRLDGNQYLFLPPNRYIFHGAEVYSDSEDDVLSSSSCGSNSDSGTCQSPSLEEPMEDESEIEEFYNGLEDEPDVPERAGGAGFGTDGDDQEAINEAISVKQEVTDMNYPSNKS
- Measurement notes: Mass spectrometry based assay for modulators of SIRT1 activity (deacetylation of p53-based acetylated peptide)
- Format: biochemical
- Condition context: concentration of test compound that results in 150% activation of SIRT1; 0.5 μM peptide substrate, 120 μM βNAD+, 10 nM SIRT1, 25 min, 25° C.
Recorded metric: EC1.5

O=C(Nc1ccccn1)c1nccn2cc(-c3cccc(OC(F)(F)F)c3)nc12 [Compound 143] = C (EC1.5>25 uM)
Cc1cnc(NC(=O)c2nccn3cc(-c4ccccc4C(F)(F)F)nc23)s1 [Compound 173] = A (EC1.5<1.0 uM)
O=C(Nc1nccs1)c1cccn2cc(-c3ccc(C(F)F)cc3)nc12 [Compound 202] = C (EC1.5>25 uM)
Cc1ccc(NC(=O)c2cccn3cc(-c4ccc(F)cc4C(F)(F)F)nc23)cc1 [Compound 141] = A (EC1.5<1.0 uM)
O=C(Nc1ccccn1)c1cccn2cc(-c3cccc(F)c3)nc12 [Compound 155] = C (EC1.5>25 uM)

Could you report EC1.5 for every entry in the following list?
1. O=C(Nc1cccn2cc(-c3cccc(C(F)(F)F)c3)nc12)c1cscn1 [Compound 117]
2. O=C(Nc1cccc(CN2CCOCC2)n1)c1cccn2cc(-c3ccc(F)c(F)c3)nc12 [Compound 195]
3. Cc1ccc(-c2nc3c(C(=O)Nc4nc(CN5CCOCC5)cs4)cccn3n2)cn1 [Compound 212]

**Result**
1: B (EC1.5 1-25 uM); 2: B (EC1.5 1-25 uM); 3: B (EC1.5 1-25 uM)

* * *

- Measured target: SIRT1 (Homo sapiens, UniProt Q96EB6)
- Construct: His-tag (N); made in house; host or cells: E. coli BL21(DE3), T7-promoter vector
- Sequence (Q96EB6 1-747): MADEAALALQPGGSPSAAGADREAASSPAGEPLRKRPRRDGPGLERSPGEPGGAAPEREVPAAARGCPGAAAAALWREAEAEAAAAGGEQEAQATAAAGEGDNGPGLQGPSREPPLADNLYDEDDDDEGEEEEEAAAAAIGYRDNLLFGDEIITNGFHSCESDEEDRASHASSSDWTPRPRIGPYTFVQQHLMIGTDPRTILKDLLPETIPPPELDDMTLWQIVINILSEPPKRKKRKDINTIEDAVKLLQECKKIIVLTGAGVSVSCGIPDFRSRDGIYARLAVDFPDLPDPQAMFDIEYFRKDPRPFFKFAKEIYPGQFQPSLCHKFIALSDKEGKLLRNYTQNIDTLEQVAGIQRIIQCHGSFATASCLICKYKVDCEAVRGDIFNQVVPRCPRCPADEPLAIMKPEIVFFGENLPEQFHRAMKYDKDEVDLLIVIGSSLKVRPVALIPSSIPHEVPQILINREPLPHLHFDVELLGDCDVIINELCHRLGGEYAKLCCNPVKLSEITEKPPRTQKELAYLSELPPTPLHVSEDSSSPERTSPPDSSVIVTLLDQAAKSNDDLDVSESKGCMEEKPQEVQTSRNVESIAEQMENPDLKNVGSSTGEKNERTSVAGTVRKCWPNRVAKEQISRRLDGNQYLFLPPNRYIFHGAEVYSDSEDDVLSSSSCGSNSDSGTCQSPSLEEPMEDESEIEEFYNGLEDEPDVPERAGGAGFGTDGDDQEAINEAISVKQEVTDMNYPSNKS
- Measurement notes: Mass spectrometry based assay for modulators of SIRT1 activity (deacetylation of p53-based acetylated peptide)
- Type: biochemical
- Condition context: percent maximum fold activation of SIRT1
Hi there, I'd appreciate the recorded Emax for every entry that follows.

Before answering, review these 4 worked examples.
O=C(Nc1ccccc1)c1cccn2cc(-c3ccccc3)nc12 [Compound 108] = < 200%
O=C(NC1CCCC1)c1cccn2cc(-c3ccccc3)nc12 [Compound 110] = < 200%
O=C(Nc1ccncn1)c1nccn2cc(-c3ccccc3OC(F)(F)F)nc12 [Compound 244] = > 200%
O=C(Nc1nc(CN2CCOCC2)cs1)c1cccn2cc(-c3ccc(F)c(Cl)c3)nc12 [Compound 235] = > 200%

Attention now turns to another entry.
**Query** Look at this molecule and give its reported Emax. O=C(Nc1ccccn1)c1nccn2cc(-c3cccc(OC(F)(F)F)c3)nc12 [Compound 143]
**Result** < 200%

The values you see were collected from patent US20110077248A1.
